Entries with reported IC50 on NAD-dependent protein deacetylase sirtuin-1 (Homo sapiens, UniProt Q96EB6)
Sequence (Q96EB6 whole entry): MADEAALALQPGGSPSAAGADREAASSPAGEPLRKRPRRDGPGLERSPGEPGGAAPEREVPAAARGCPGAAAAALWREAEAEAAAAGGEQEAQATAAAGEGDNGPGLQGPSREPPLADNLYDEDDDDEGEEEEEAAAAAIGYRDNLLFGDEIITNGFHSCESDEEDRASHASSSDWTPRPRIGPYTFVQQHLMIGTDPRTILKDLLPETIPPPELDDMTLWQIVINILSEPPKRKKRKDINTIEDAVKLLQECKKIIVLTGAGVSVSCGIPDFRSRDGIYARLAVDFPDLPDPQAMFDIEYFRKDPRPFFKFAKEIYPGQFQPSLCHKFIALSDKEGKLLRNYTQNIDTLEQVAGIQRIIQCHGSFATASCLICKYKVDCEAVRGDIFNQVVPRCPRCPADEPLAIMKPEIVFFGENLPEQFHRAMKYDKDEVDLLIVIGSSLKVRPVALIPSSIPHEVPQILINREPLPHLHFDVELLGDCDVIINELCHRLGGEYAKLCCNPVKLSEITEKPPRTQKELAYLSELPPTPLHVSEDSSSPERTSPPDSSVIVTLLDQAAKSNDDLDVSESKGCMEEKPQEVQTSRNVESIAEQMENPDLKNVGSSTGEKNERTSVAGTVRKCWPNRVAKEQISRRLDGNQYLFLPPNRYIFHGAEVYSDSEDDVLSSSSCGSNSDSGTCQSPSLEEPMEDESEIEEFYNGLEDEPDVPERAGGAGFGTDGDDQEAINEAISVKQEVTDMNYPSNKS
Attribute measured: IC50

{"columns": ["Smiles text", "Result value"],
 "data": [
  ["Cc1cc(C)nc(SCC(=O)Nc2ncc(Cc3cccc4ccccc34)s2)n1", "> 200 µM"],
  ["O=C(On1nnc2ccccc21)c1cc[nH]c1", "> 200 µM"]
]}

###

# Tgt: NAD-dependent protein deacetylase sirtuin-2 (Homo sapiens, UniProt Q8IXJ6)
# Sequence (Q8IXJ6 whole entry, the tested form may be a part): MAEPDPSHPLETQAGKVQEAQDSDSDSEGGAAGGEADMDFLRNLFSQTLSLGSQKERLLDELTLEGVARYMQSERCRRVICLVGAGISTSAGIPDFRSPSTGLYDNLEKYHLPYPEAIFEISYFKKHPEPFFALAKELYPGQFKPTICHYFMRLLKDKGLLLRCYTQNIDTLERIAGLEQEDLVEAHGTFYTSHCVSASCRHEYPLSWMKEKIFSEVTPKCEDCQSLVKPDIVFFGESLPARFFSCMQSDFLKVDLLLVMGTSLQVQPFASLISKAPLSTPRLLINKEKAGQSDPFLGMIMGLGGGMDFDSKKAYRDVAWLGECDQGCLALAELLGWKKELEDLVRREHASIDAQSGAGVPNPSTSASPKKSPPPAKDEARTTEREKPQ
# Method notes: Inhibition of SIRT2 defatty-acylation activity (unknown origin) using H4K8-Myr (3 to 13 residues) as substrate by HPLC analysis

{"columns": ["Smiles text", "Unit tag", "IC50"],
 "data": [
  ["O=C(On1nnc2ccccc21)c1c[nH]c2ccccc12", "µM", 73.6]
]}

The reported measurements were obtained from ChEMBL document CHEMBL4616628.
